- targetEntity: c-FMS kinase in THP-1 cells (Homo sapiens (Human), UniProt P07333)
- Sequence (P07333 20-972): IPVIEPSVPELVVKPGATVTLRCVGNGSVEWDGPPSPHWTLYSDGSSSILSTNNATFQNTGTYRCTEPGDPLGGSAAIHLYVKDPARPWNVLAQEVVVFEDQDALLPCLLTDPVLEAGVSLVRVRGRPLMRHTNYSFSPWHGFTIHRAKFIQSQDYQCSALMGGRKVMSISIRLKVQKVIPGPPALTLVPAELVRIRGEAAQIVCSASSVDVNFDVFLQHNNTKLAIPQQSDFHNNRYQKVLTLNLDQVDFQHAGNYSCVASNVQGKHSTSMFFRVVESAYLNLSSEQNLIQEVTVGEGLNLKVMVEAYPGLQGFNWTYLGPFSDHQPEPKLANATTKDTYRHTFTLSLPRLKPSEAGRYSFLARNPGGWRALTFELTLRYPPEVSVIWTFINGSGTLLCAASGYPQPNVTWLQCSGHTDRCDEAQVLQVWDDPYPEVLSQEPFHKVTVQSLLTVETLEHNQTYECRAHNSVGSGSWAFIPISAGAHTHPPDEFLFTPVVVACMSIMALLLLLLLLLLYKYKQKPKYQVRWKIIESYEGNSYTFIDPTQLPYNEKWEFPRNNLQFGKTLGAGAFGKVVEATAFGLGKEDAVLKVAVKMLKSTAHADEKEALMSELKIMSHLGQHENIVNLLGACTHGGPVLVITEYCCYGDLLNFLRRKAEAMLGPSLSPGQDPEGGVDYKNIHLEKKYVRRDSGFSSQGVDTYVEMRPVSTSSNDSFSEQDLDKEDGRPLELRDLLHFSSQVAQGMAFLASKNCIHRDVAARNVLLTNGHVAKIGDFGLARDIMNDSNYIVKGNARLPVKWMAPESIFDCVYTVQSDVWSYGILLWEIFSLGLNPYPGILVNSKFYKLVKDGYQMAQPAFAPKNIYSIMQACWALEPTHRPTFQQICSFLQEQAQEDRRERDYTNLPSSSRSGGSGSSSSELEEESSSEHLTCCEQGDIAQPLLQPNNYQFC
- procedureText: Phospho-FMS ELISA assay in THP-1 cells
- Format: cell-based
- experimentalConditions: 4 h compound, M-CSF stimulation 5 min; read-out: pFMS inhibition in THP-1 cells
metricName: IC50

{"chemSmiles": "Cc1cc(-c2cc(Oc3ccc(NC(=O)N4CCN(C5CCOCC5)C4=O)nc3C)ccn2)on1", "IC50": "0.1 to 1 µM"}
{"chemSmiles": "CCc1nc(NC(=O)N2CCN(CC(F)(F)F)C2=O)ccc1Oc1ccnc(-c2cnn(C)c2)c1", "IC50": "0.1 to 1 µM"}
{"chemSmiles": "Cn1cc(-c2cc(Oc3ccc(NC(=O)N4CCN(C5CCCCC5)C4=O)nc3)ccn2)cn1", "IC50": "0.01 to 0.1 µM"}

Input Cn1cc(-c2cc(Oc3ccc(NC(=O)N4CCN(CCOC(F)(F)F)C4=O)nc3)ccn2)cn1 . Output IC50: 0.01 to 0.1 µM

GET /value?item= [2H]C([2H])([2H])n1cc(-c2cc(Oc3ccc(NC(=O)N4CCN(CCOC)C4=O)nc3C)ccn2)cn1 &field=IC50 returns 0.01 to 0.1 µM

Data point: O=C(Nc1cc(Cl)c(Oc2ccnc(-c3cn[nH]c3)c2)cc1F)N1CCN(C2CCOCC2)C1=O ; IC50 = 0.01 to 0.1 µM

So, Cn1cc(-c2cc(Oc3ccc(NC(=O)N4CCN(C(C)(C)C)C4=O)nc3)ccn2)cn1 ? Its IC50 was < 0.01 µM

# IC50 of COCCN1CCN(C(=O)Nc2ccc(Oc3ccnc(-c4cnn(C)c4)c3)cn2)C1=O = < 0.01 µM

The compound Cc1ccc(-c2cc(Oc3ccc(NC(=O)N4CCN(C5CCOCC5)C4=O)nc3C)ccn2)cn1 showed IC50 equal to 0.1 to 1 µM

Item: Cc1cc(NC(=O)N2CCN(C)C2=O)ncc1Oc1ccnc(-c2cnn(C)c2)c1 | IC50: 0.01 to 0.1 µM

Entry under test: CCc1nc(NC(=O)N2CCN(C3CC3)C2=O)ccc1Oc1ccnc(-c2cnn(C)c2)c1 . Its IC50 was 0.01 to 0.1 µM

Query Cn1cc(-c2cc(Oc3cc(F)c(NC(=O)N4CCN(C5CCOCC5)C4=O)cc3F)ccn2)cn1 yields IC50 of 0.01 to 0.1 µM

So, Cc1cc(-c2cc(Oc3ccc(NC(=O)N4CCN(C5CCOCC5)C4=O)nc3)ccn2)on1 ? Its IC50 was 0.01 to 0.1 µM

IC50 reading for COCCN1CCN(C(=O)Nc2ccc(Oc3ccnc(-c4cnn(C)c4)c3)c(C)n2)C1=O : 0.01 to 0.1 µM

Reported IC50 of CC(=O)Nc1cc(Oc2cc(F)c(NC(=O)N3CCN(C4CCOCC4)C3=O)cc2Cl)ccn1 : 0.1 to 1 µM

Recorded IC50 (compound CCN1CCN(C(=O)Nc2cc(C)c(Oc3ccnc(-n4cnc(C)c4)c3)cn2)C1=O ): 0.01 to 0.1 µM

// IC50 value for Cc1nc(NC(=O)N2CCN(C3CCCC3)C2=O)ccc1Oc1ccnc(-c2cnn(C)c2)c1 : 0.01 to 0.1 µM

Documented IC50 of Cc1nc(NC(=O)N2CCN(C(C)(C)C)C2=O)ccc1Oc1ccnc(-c2cnn(C)c2)c1 : < 0.01 µM

The reported measurements were obtained from patent US9133183B2.
